- Species: Rattus norvegicus
- Assay name: Antihypertensive activity expressed as percentage of base-line systolic blood pressure of base-line values in spontaneously hypertensive rats (SHR) was reported after 2 hr; further: test concentration or dose not given here
- Format: functional, Artery
Reported property: Baseline systolic BP (%)

> print(dat)
                                   molecule  measurement
1  CC(C)NCC(O)COc1ccc(CCS(=O)(=O)CC2CCC2)cc1.Cl (centres undefined)           -4
2  CC(CCc1ccccc1)NCC(O)COc1ccc(CCOCC2CCC2)cc1 (centres undefined)           -1
3  Cl.OC(CNC1CC1)COc1ccc(CCOCC2CCC2)cc1 (centres undefined)            0
4  CC(C)NCC(O)COc1ccc(COCC2CC2)cc1 (centres undefined)           -4
5  CC(C)NCC(O)COc1ccc(CCOC2CCCC2)cc1.Cl (centres undefined)           -8
6  CC(C)NCC(O)COc1ccc(CCSCC2CCC2)cc1 (centres undefined)           -2
7      CC(C)NC[C@H](O)COc1ccc(CCOCC2CC2)cc1          -10
8  CC(C)NCC(O)COc1ccc(CCOCC2CC2)cc1.Cl (centres undefined) [BETAXOLOL HYDROCHLORIDE]          -22
9  COc1ccc(CCNCC(O)COc2ccc(CCOCC3CCC3)cc2)cc1OC.Cl (centres undefined)           -7

Data origin, for the record: ChEMBL document CHEMBL1123868
